assay: Cytotoxicity against human MOLT3 cells after 48 hrs by XTT assay; assay type: functional, cell-based; details: MOLT-3, 48 h
Experimental Endpoint: pIC50
# reply with the number alone; pIC50 is -log10 of concentration in mol/L

Query: Could you share which pIC50 value was measured for O=C1C(Cl)=C(Nc2cccc(S(=O)(=O)NCCc3ccccn3)c2)C(=O)c2ccccc21 ?
Reply: 5.66

Query: Can you look up the measured pIC50 of O=C1C(Cl)=C(Nc2cccc(S(=O)(=O)NCCc3ccccc3)c2)C(=O)c2ccccc21 for me?
Reply: 5.48

Query: Item under review: O=C1C(Cl)=C(Nc2ccc(S(=O)(=O)N3CCc4ccccc4C3)cc2)C(=O)c2ccccc21 . Reported pIC50?
Reply: 5.07

Query: Would you kindly share the measured pIC50 for O=C1C(Cl)=C(Nc2cccc(S(=O)(=O)NCc3ccccn3)c2)C(=O)c2ccccc21 ?
Reply: 5.62

Query: I would be grateful if you could share the reported pIC50 for O=C1C(Cl)=C(Nc2ccc(S(=O)(=O)NCCc3ccccn3)cc2)C(=O)c2ccccc21 .
Reply: 5.86

Query: Reported pIC50 for O=C1C(Cl)=C(Nc2ccc(S(=O)(=O)NCc3ccccn3)cc2)C(=O)c2ccccc21 : what is it?
Reply: 5.86

Query: # input molecule: O=C1C(Cl)=C(Nc2ccc(S(=O)(=O)NCCc3ccccc3)cc2)C(=O)c2ccccc21 ; wanted: its pIC50
Reply: 5.66

Query: What pIC50 value was documented for this molecule, COc1cc2c(cc1OC)CN(S(=O)(=O)c1cccc(NC3=C(Cl)C(=O)c4ccccc4C3=O)c1)CC2 ?
Reply: 5.63

Query: # lookup: pIC50 of COc1ccc(CCNS(=O)(=O)c2cccc(NC3=C(Cl)C(=O)c4ccccc4C3=O)c2)cc1OC
Reply: 5.31

Query: For the molecule shown here, COc1cc([C@@H]2c3cc4c(cc3[C@@H](O[C@@H]3O[C@@H]5CO[C@@H](C)O[C@H]5[C@H](O)[C@H]3O)[C@H]3COC(=O)[C@H]23)OCO4)cc(OC)c1O [ETOPOSIDE] , give the reported pIC50.
Reply: 7.39

Query: Fill blank: measured pIC50 of the molecule O=C1C(Cl)=C(Nc2cccc(S(=O)(=O)N3CCc4ccccc4C3)c2)C(=O)c2ccccc21 is ____.
Reply: 5.72

Query: Entry under review: COc1cc2c(cc1OC)CN(S(=O)(=O)c1ccc(NC3=C(Cl)C(=O)c4ccccc4C3=O)cc1)CC2 . Reported pIC50?
Reply: 5.76

Query: Item under review: COc1ccc(CCNS(=O)(=O)c2ccc(NC3=C(Cl)C(=O)c4ccccc4C3=O)cc2)cc1OC . Reported pIC50?
Reply: 5.69
